The reported measurements were obtained from PubChem BioAssay (NCATS).

assayed target: D(1A) dopamine receptor (Homo sapiens) (UniProt P21728)
Sequence (P21728 whole entry, looked up): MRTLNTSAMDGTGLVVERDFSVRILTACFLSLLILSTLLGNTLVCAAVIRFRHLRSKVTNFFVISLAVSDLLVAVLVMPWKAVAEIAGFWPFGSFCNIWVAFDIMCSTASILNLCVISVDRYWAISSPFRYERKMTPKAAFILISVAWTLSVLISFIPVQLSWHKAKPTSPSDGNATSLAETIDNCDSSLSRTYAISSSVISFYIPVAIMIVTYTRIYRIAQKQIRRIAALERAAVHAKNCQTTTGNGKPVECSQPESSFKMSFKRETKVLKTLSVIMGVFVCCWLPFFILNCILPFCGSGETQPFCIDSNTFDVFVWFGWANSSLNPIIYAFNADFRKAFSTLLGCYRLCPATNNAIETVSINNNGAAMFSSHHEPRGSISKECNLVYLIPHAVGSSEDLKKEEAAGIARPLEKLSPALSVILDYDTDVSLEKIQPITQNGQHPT
procedure details: HTS Assay for Allosteric Agonists of the Human D1 Dopamine Receptor: Primary Screen for Antagonists (AID 488983);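 also: calcium flux response to an EC80 dopamine challenge measured with no-wash dye; nearly all actives have a fitted effect of over 65% in size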
study conditions: D1 receptor cell assay, antagonist mode, qHTS titration; series mostly up to 41.8 µM
Inconclusive results are not listed. Active and inactive are the calls of the source. Calls follow the shape of the dose curve; as a rule, active = well fitted inhibition curve with a large enough effect; inconclusive = small, poorly fitted or top-dose-only effect, or effect the other way; inactive = flat fitted curve, though single readings scatter.
quantity: outcome

>>> result("CC(=O)CCCCn1c(=O)c2c(ncn2C)n(C)c1=O")
"inactive"
>>> result("C[N+](C)(C)CC(=O)O")
"inactive"
>>> result("Clc1ccc(Cn2c(CN3CCCC3)nc3ccccc32)cc1")
"inactive"
>>> result("O=c1c(-c2ccc(O)cc2)coc2cc(O)ccc12")
"inactive"
>>> result("CC(=O)c1ccc(S(=O)(=O)NC(=O)NC2CCCCC2)cc1")
"inactive"

Which outcome value is on record for O=C(O)CCc1nc(-c2ccccc2)c(-c2ccccc2)o1 ?
inactive

Requested field: outcome. Item: CCN(CC)CCOC(=O)c1ccc(N)cc1
inactive

I would be grateful if you could share the reported outcome for CCCNC(=O)NS(=O)(=O)c1ccc(Cl)cc1 .
inactive

Query (compound): O=C1NC(=O)C(c2ccccc2)(c2ccccc2)N1 ; field requested: outcome
inactive

May I ask what outcome has been recorded for Cc1cccc(C)c1OCC(C)N (stereo unspecified) ?
inactive

What value of outcome has been recorded for this entry: CC(=O)O[C@]1(C(C)=O)CC[C@H]2[C@@H]3C=C(Cl)C4=CC(=O)[C@@H]5C[C@@H]5[C@]4(C)[C@H]3CC[C@@]21C
inactive

Which outcome value belongs to CN(C)CCC(c1ccccc1)c1ccccn1 (stereo unspecified) ?
inactive
